These entries and their values trace back to patent US9968579B2.

biological target: Pin1 PPIase domain (Homo sapiens, UniProt Q13526); construct: Pin1 PPIase domain was used instead of its full-length protein; assay: FP-HTS / FP assay, competition with pTide probe for Pin1 binding; conditions: FIG. 4F
Sequence (Q13526 52-163 limits assumed): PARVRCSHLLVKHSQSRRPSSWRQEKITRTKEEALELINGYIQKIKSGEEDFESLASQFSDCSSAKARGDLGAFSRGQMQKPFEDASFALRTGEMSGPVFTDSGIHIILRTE

{"columns": ["compound", "Pin1 binding among retinoids tested"],
 "data": [
  ["CC1=C(/C=C/C(C)=C/C=C/C(C)=C/C=O)C(C)(C)CCC1", "completely inactive"],
  ["CC(=O)OC/C=C(C)/C=C/C=C(C)/C=C/C1=C(C)CCCC1(C)C [retinyl acetate]", "completely inactive"],
  ["CC1=C(/C=C/C(C)=C/C=C/C(C)=C/CO)C(C)(C)CCC1", "completely inactive"]
]}
